Entry source: ChEMBL document CHEMBL1201862

- System: HT-29
- Experiment: NCI tumour cell line growth inhibition, 48 h
The source made the active and inactive calls. Rule as the data show it: active = GI50 up to about 1.1 µM and inactive = higher.
Reported GI50 by item:

Answered examples (6):
Molecule	Target Of Assay	Quantity Name	Value Reported
COc1cc(OC)c(-c2cc(=O)c3c(OC)c(OC)c(OC)c(OC)c3o2)cc1OC	HT-29	GI50	> 100 µM (inactive)
CCC1(CN(C)C)CC/C(=C\c2ccc3c(c2)OCO3)C1=O (stereo not given)	HT-29	GI50	65.2 µM (inactive)
CC1=NN(c2ccccc2)C(=O)C12[C@H](c1ccccc1)C2(C#N)C#N (stereo not given in full)	HT-29	GI50	4.59 µM (inactive)
C/C(CC(O)(C(F)(F)F)C(F)(F)F)=N/Nc1ccc([N+](=O)[O-])cc1[N+](=O)[O-]	HT-29	GI50	2.69 µM (inactive)
COc1cc(/C=C2/C(=O)NC(Cc3cc(OC)c(OC)c(C)c3OC)C(=O)N2Cc2ccccc2)c(OC)c(C)c1OC (stereo not given)	HT-29	GI50	79.8 µM (inactive)
COC(=O)CCc1cc(O)c2c(c1)C(C(=O)OC)C(c1ccc(O)c(O)c1)O2 (stereo not given)	HT-29	GI50	27.2 µM (inactive)

Give GI50 for the following molecule: ON(CCc1ccccn1)Cc1ccccc1
> 100 µM (inactive)

Give GI50 for the following molecule: CCCc1[nH]c(SCCCCCCCCSc2nc(-c3ccc(F)cc3)c(CCC)[nH]2)nc1-c1ccc(F)cc1
62.7 µM (inactive)

Give GI50 for the following molecule: c1ccc2[nH]c3[nH]c4[nH]c5ccccc5[nH]c4[nH]c3[nH]c2c1
> 100 µM (inactive)

Give GI50 for the following molecule: Oc1ccc2ccccc2c1OCc1nnc(CCCCCCCCc2nnc(COc3c(O)ccc4ccccc34)o2)o1
> 100 µM (inactive)

Give GI50 for the following molecule: C[S+](C)CCOC(=O)C(=[N+]=[N-])c1ccc([N+](=O)[O-])cc1
> 100 µM (inactive)

Give GI50 for the following molecule: C[n+]1c(-c2ccc(/C=N/NC(=O)c3ccc(C(=O)N/N=C/c4ccc(-c5cn6ccccc6[n+]5C)cc4)cc3)cc2)cn2ccccc21
> 100 µM (inactive)

Give GI50 for the following molecule: O=C(NCc1ccccc1Cl)c1c(O)c2ccccc2[nH]c1=O
54.5 µM (inactive)

Give GI50 for the following molecule: COC1/C=C(C)/C=C/C(C)/C=C/C(=O)OC(/C(C)=C/C=C(\C)CNC(=O)[C@H](CO)NC=O)C(C)/C=C/C=C/C(OC)CC/C=C(C)/C=C/C1 (stereo not given in full)
0.0125 µM (active)

Give GI50 for the following molecule: N#CC(C#N)=C1C(C#N)=C(N)NC12OCCO2
> 100 µM (inactive)

Give GI50 for the following molecule: CCC1CCC2c3c([nH]c4ccccc34)C3C(=O)N(c4ccc(OC)cc4)C(=O)C3C2C1 (stereo not given)
42.3 µM (inactive)

Give GI50 for the following molecule: O=C(NCCNCCO)N/N=C/c1cccc([N+](=O)[O-])c1
> 100 µM (inactive)

Give GI50 for the following molecule: C[C@H]1COC(c2ccccn2)=N1
> 100 µM (inactive)

Give GI50 for the following molecule: Oc1ccc(-c2nc3ccc4ccccc4c3c3c2CCCC3)c(O)c1
11.9 µM (inactive)
